Reference source for all entries: ChEMBL document CHEMBL1131141

This listing pairs compounds with measured log10 EC50.
Tested on: MT4
assay comment: Dose required to achieve 50% protection of MT-4 cells from HIV-1(IIIB) induced cytopathogenicity, determined by […] method.
Assay type: functional, cell-based
experimental conditions: Homo sapiens
Log10 applied to EC50; unit prior to transform: nM.

See these solved cases before continuing.
• CCN1C(=O)N(Cc2ccccc2)S(=O)(=O)c2cscc21 = 3.40
• CCOC(=O)CN1C(=O)N(Cc2ccccc2)S(=O)(=O)c2cscc21 = 3.87
• N#CCN1C(=O)N(Cc2cccnc2)S(=O)(=O)c2cscc21 = 2.30
• CCN1C(=O)N(Cc2ccccc2Cl)S(=O)(=O)c2cscc21 = 3.86

**Q:** Fill in: log10 EC50 on MT4, entry N#CCN1C(=O)N(Cc2ccccn2)S(=O)(=O)c2cscc21
**A:** 3.04

**Q:** Name the recorded log10 EC50 of Cc1cn([C@H]2C[C@H](N=[N+]=[N-])[C@@H](CO)O2)c(=O)[nH]c1=O , assay system MT4.
**A:** -0.15

**Q:** Fetch value of log10 EC50 on MT4 for O=C1N(Cc2ccccc2)c2cscc2S(=O)(=O)N1Cc1ccccn1 .
**A:** 2.60

**Q:** Supply log10 EC50 measured with MT4 for CCN1C(=O)N(Cc2cccc(Cl)c2)S(=O)(=O)c2cscc21 .
**A:** 3.32

* * *

Test system: Human immunodeficiency virus 1
assay comment: Selectivity index was measured as the ratio of CC50(HIV-1) to that of EC50(HIV-1); SI Selectivity Index
Format: functional
Where SI equals or exceeds 40, the correct label is 1 (yes); where it does not, the label is 0 (no).

Solved entries (count: 6):
- O=C1N(Cc2cccc(Cl)c2)c2cscc2S(=O)(=O)N1Cc1ccccc1: 1 (yes)
- N#CCN1C(=O)N(Cc2ccccc2)S(=O)(=O)c2sc(Cl)cc21: 0 (no)
- CCN1C(=O)N(Cc2ccccc2Cl)S(=O)(=O)c2cscc21: 1 (yes)
- O=C1N(Cc2ccccc2)c2cscc2S(=O)(=O)N1CCc1ccccc1: 0 (no)
- O=C1N(Cc2ccccc2Cl)c2cscc2S(=O)(=O)N1Cc1ccccc1: 1 (yes)
- N#CCN1C(=O)N(Cc2cccc(Br)c2)S(=O)(=O)c2cscc21: 1 (yes)

**Q:** Please indicate if the recorded SI for N#CCN1C(=O)N(Cc2cccc(Cl)c2)S(=O)(=O)c2cscc21 meets or exceeds 40.
**A:** 1 (yes)

**Q:** Assess whether reported SI for CCN1C(=O)N(CCc2ccccc2)S(=O)(=O)c2cscc21 sits at 40 or higher.
**A:** 0 (no)

**Q:** Dear colleague, could you confirm whether C#CCN1C(=O)N(Cc2cccc(Cl)c2)S(=O)(=O)c2cscc21 has SI at or above 40?
**A:** 1 (yes)

**Q:** Say whether CCN1C(=O)N(Cc2cccc(Cl)c2)S(=O)(=O)c2cscc21 shows SI of 40 or more.
**A:** 1 (yes)

* * *

Tested on: Human immunodeficiency virus 1
assay comment: Selectivity index was measured as the ratio of CC50(HIV-1) to that of EC50(HIV-1); SI Selectivity Index
Type: functional
Param threshold (400) applies to SI; output true when value >= threshold, false when value < threshold.

Worked cases, answers included:
- N#CCN1C(=O)N(CCc2ccccc2)S(=O)(=O)c2cscc21: false
- Cc1ccnc2c1NC(=O)c1cccnc1N2C1CC1 [NEVIRAPINE]: true
- CN1C(=O)N(Cc2ccccc2Cl)S(=O)(=O)c2cscc21: false
- N#CCN1C(=O)N(Cc2ccccc2)S(=O)(=O)c2cscc21: true
- CN1C(=O)N(Cc2ccccc2)S(=O)(=O)c2nn(C)cc21: false

**Q:** I'd appreciate it if you could say whether O=C1N(Cc2ccccc2)c2cscc2S(=O)(=O)N1Cc1ccccn1 has SI at least equal to 400.
**A:** true

**Q:** Check if SI >= 400 (inclusive). Item: N#CCN1C(=O)N(Cc2cccc(F)c2)S(=O)(=O)c2cscc21
**A:** true

**Q:** Record CN1C(=O)N(Cc2ccccc2)S(=O)(=O)c2cscc21 ; criterion: SI no lower than 400. Met?
**A:** false
